ASSAY METHOD TEXT: cn = amount concentration of the nth substance listed, in mol/dm3
COND: 303 K, Ring tensiometer, c1 = 5.01e-07
Property: surface tension liquid-gas; scope: individual compounds
// units = mN/m; emit number, no label

As a guide, the following entries are already answered.
{"COMPOUND": "CCCCCCCCCCCCCCCC[n+]1ccccc1.[Br-] [1-hexadecylpyridinium bromide] + O", "MEASUREMENT UNIT": "mN/m", "surface tension liquid-gas": 71.13}
{"COMPOUND": "CCCCCCCCCCCC[N+](C)(C)CC.[Br-] [dodecyl ethyl dimethylammonium bromide] + O", "MEASUREMENT UNIT": "mN/m", "surface tension liquid-gas": 71.19}
{"COMPOUND": "CCCCCCCCCCCCCCCC[N+](C)(C)C.[Br-] [N,N,N-trimethyl-1-hexadecanaminium bromide] + O", "MEASUREMENT UNIT": "mN/m", "surface tension liquid-gas": 71.16}
{"COMPOUND": "CCCCCCCCCCCCN(C)CC(=O)[O-].[Na+] [sodium laurylsarcosinate] + O", "MEASUREMENT UNIT": "mN/m", "surface tension liquid-gas": 71.15}

[in] Provide one value: measured surface tension liquid-gas of CCCCCCCCCCCC[N+](C)(C)Cc1ccccc1.[Br-] [benzenemethanaminium, N-dodecyl-N,N-dimethyl, bromide] + O
[out] 71.09

====

ASSAY METHOD TEXT: cn = amount concentration of the nth substance listed, in mol/dm3
COND: 313 K, Ring tensiometer, c1 = 1e-05
Numbers after ± are expanded uncertainties.
Property: surface tension liquid-gas; scope: individual compounds
Field note: include the unit after the figure.

As a guide, the following entries are already answered.
{"COMPOUND": "CCCCCCCCCCCCOS(=O)(=O)[O-].[Na+] [sodium dodecyl sulfate] + O", "surface tension liquid-gas": "69.51 ± 1.3 mN/m"}
{"COMPOUND": "CCCCCCCCCCCC[N+](C)(C)Cc1ccccc1.[Br-] [benzenemethanaminium, N-dodecyl-N,N-dimethyl, bromide] + O", "surface tension liquid-gas": "67.78 ± 1.3 mN/m"}
{"COMPOUND": "CCCCCCCCCCCCCCCCS(=O)(=O)[O-].[Na+] [sodium hexadecylsulfonate] + O", "surface tension liquid-gas": "68.99 ± 1.3 mN/m"}
{"COMPOUND": "CCCCCCCCCCCCCC[N+](C)(C)C.[Br-] [tetradecyltrimethylammonium bromide] + O", "surface tension liquid-gas": "68.49 ± 1.3 mN/m"}
{"COMPOUND": "CCCCCCCCCCCCN(C)CC(=O)[O-].[Na+] [sodium laurylsarcosinate] + O", "surface tension liquid-gas": "68.83 ± 1.3 mN/m"}
{"COMPOUND": "CCCCCCCCCCCCCCCC[n+]1ccccc1.[Br-] [1-hexadecylpyridinium bromide] + O", "surface tension liquid-gas": "68.52 ± 1.3 mN/m"}
{"COMPOUND": "CCCCCCCCCCCCCCCC[N+](C)(C)C.[Br-] [N,N,N-trimethyl-1-hexadecanaminium bromide] + O", "surface tension liquid-gas": "68.88 ± 1.3 mN/m"}

[in] Provide one value: measured surface tension liquid-gas of CCCCCCCCCCCC[N+](C)(C)CC.[Br-] [dodecyl ethyl dimethylammonium bromide] + O
[out] 69.53 ± 1.3 mN/m

====

Property: surface tension liquid-gas; scope: individual molecules
ASSAY METHOD TEXT: cn = amount concentration of the nth substance listed, in mol/dm3
COND: 303 K, Ring tensiometer, c2 = 0
± gives the expanded uncertainty stated by the source.

{"MOLECULE": "O [water] + CCCCCCCCCCCC[N+](C)(C)CC.[Br-]", "surface tension liquid-gas": "71.2 ± 1.3 mN/m"}
{"MOLECULE": "O [water] + CCCCCCCCCCCCCCCC[n+]1ccccc1.[Br-]", "surface tension liquid-gas": "71.2 ± 1.3 mN/m"}
{"MOLECULE": "O [water] + CCCCCCCCCCCCCCCCS(=O)(=O)[O-].[Na+]", "surface tension liquid-gas": "71.2 ± 1.3 mN/m"}
{"MOLECULE": "O [water] + CCCCCCCCCCCCN(C)CC(=O)[O-].[Na+]", "surface tension liquid-gas": "71.2 ± 1.3 mN/m"}

[in] Provide one value: measured surface tension liquid-gas of O [water] + CCCCCCCCCCCC[N+](C)(C)Cc1ccccc1.[Br-]
[out] 71.2 ± 1.3 mN/m

[in] Provide one value: measured surface tension liquid-gas of O [water] + CCCCCCCCCCCCCCCC[N+](C)(C)C.[Br-]
[out] 71.2 ± 1.3 mN/m

[in] Provide one value: measured surface tension liquid-gas of O [water] + CCCCCCCCCCCCOS(=O)(=O)[O-].[Na+]
[out] 71.2 ± 1.3 mN/m

====

ASSAY METHOD TEXT: cn = amount concentration of the nth substance listed, in mol/dm3
COND: 293 K, Ring tensiometer, c1 = 0.000501
RESULT TYPE: surface tension liquid-gas (mN/m)
// units = mN/m; emit number, no label

As a guide, the following entries are already answered.
{"COMPOUND": "CCCCCCCCCCCC[N+](C)(C)CC.[Br-] [dodecyl ethyl dimethylammonium bromide] + O", "RECORDED RESULT": 67.8}
{"COMPOUND": "CCCCCCCCCCCCCC[N+](C)(C)C.[Br-] [tetradecyltrimethylammonium bromide] + O", "RECORDED RESULT": 59.1}

[in] Provide one value: measured surface tension liquid-gas of CCCCCCCCCCCC[N+](C)(C)Cc1ccccc1.[Br-] [benzenemethanaminium, N-dodecyl-N,N-dimethyl, bromide] + O
[out] 51.7

[in] Provide one value: measured surface tension liquid-gas of CCCCCCCCCCCCCCCC[N+](C)(C)C.[Br-] [N,N,N-trimethyl-1-hexadecanaminium bromide] + O
[out] 47.02

[in] Provide one value: measured surface tension liquid-gas of CCCCCCCCCCCCN(C)CC(=O)[O-].[Na+] [sodium laurylsarcosinate] + O
[out] 48.6

====

ASSAY METHOD TEXT: cn = amount concentration of the nth substance listed, in mol/dm3
COND: 303 K, Ring tensiometer, c1 = 0.001
Classification field: 1 = surface tension liquid-gas at or over 60 mN/m; 0 = surface tension liquid-gas under 60 mN/m.

Solved cases below.
{"COMPOUND": "CCCCCCCCCCCCCCCC[N+](C)(C)C.[Br-] [N,N,N-trimethyl-1-hexadecanaminium bromide] + O", "ANSWER LABEL": 0}
{"COMPOUND": "CCCCCCCCCCCC[N+](C)(C)CC.[Br-] [dodecyl ethyl dimethylammonium bromide] + O", "ANSWER LABEL": 1}
{"COMPOUND": "CCCCCCCCCCCCN(C)CC(=O)[O-].[Na+] [sodium laurylsarcosinate] + O", "ANSWER LABEL": 0}

[in] In plain terms: is recorded surface tension liquid-gas at least 60 mN/m for CCCCCCCCCCCC[N+](C)(C)Cc1ccccc1.[Br-] [benzenemethanaminium, N-dodecyl-N,N-dimethyl, bromide] + O ?
[out] 0

[in] In plain terms: is recorded surface tension liquid-gas at least 60 mN/m for CCCCCCCCCCCCOS(=O)(=O)[O-].[Na+] [sodium dodecyl sulfate] + O ?
[out] 1

[in] In plain terms: is recorded surface tension liquid-gas at least 60 mN/m for CCCCCCCCCCCCCCCC[n+]1ccccc1.[Br-] [1-hexadecylpyridinium bromide] + O ?
[out] 0

====

ASSAY METHOD TEXT: cn = amount concentration of the nth substance listed, in mol/dm3
COND: 303 K, Ring tensiometer, c1 = 5.01e-06
Numbers after ± are expanded uncertainties.
RESULT TYPE: surface tension liquid-gas
Field note: include the unit after the figure.

As a guide, the following entries are already answered.
{"COMPOUND": "CCCCCCCCCCCC[N+](C)(C)Cc1ccccc1.[Br-] [benzenemethanaminium, N-dodecyl-N,N-dimethyl, bromide] + O", "surface tension liquid-gas": "70.22 ± 1.3 mN/m"}
{"COMPOUND": "CCCCCCCCCCCCCCCCS(=O)(=O)[O-].[Na+] [sodium hexadecylsulfonate] + O", "surface tension liquid-gas": "70.89 ± 1.3 mN/m"}
{"COMPOUND": "CCCCCCCCCCCC[N+](C)(C)CC.[Br-] [dodecyl ethyl dimethylammonium bromide] + O", "surface tension liquid-gas": "71.13 ± 1.3 mN/m"}
{"COMPOUND": "CCCCCCCCCCCCN(C)CC(=O)[O-].[Na+] [sodium laurylsarcosinate] + O", "surface tension liquid-gas": "70.72 ± 1.3 mN/m"}

Pending compound:
[in] Provide one value: measured surface tension liquid-gas of CCCCCCCCCCCCCCCC[n+]1ccccc1.[Br-] [1-hexadecylpyridinium bromide] + O
[out] 70.56 ± 1.3 mN/m

====

ASSAY METHOD TEXT: cn = amount concentration of the nth substance listed, in mol/dm3
COND: 313 K, Ring tensiometer, c1 = 0.000891
Property: surface tension liquid-gas; scope: individual molecules
// units = mN/m; emit number, no label

{"MOLECULE": "CCCCCCCCCCCCCC[N+](C)(C)C.[Br-] [tetradecyltrimethylammonium bromide] + O", "surface tension liquid-gas, mN/m": 51.54}

[in] Provide one value: measured surface tension liquid-gas of CCCCCCCCCCCCCCCCS(=O)(=O)[O-].[Na+] [sodium hexadecylsulfonate] + O
[out] 38.55

[in] Provide one value: measured surface tension liquid-gas of CCCCCCCCCCCCN(C)CC(=O)[O-].[Na+] [sodium laurylsarcosinate] + O
[out] 41.15

[in] Provide one value: measured surface tension liquid-gas of CCCCCCCCCCCCCCCC[N+](C)(C)C.[Br-] [N,N,N-trimethyl-1-hexadecanaminium bromide] + O
[out] 37.25
